# procedureText: Stability assessed as cyclization activation in phosphate buffer at pH 6.0 by HPLC
# Type: physicochemical
Assign half-life to each entry below.
Answers are plain numbers, in h.

structure | unitSymbol | half-life
CC(C)(CON)C(=O)OC[C@H]1O[C@@H](n2cc(F)c(=O)[nH]c2=O)C[C@@H]1O.Cl | h | 23.4

Need half-life of Cl.NOCCC(=O)OC[C@H]1O[C@@H](n2cc(F)c(=O)[nH]c2=O)C[C@@H]1O , thanks.
22.9

###

# procedureText: Stability assessed as cyclization activation in phosphate buffer at pH 7.4 by HPLC
# Assay type: physicochemical
Assign half-life to each entry below.
Reply with the number and its unit after it.

structure | half-life
CC(C)(CON)C(=O)OC[C@H]1O[C@@H](n2cc(F)c(=O)[nH]c2=O)C[C@@H]1O.Cl | 43.3 min

Kindly review the next molecule as well.
Need half-life of Cl.NOCCC(=O)OC[C@H]1O[C@@H](n2cc(F)c(=O)[nH]c2=O)C[C@@H]1O , thanks.
68.6 min

Data origin: ChEMBL document CHEMBL1143278
